# systemName: T1, recombinant human TROP2 extracellular domain (aa 1-274) comprising His tag (human, UniProt P09758 27-274)
# T1 construct: Used here for all assays on recombinant human TROP2 (ELISA, immunoblot, SPR, crystal), although only some of them name the catalogue number; also called human recombinant TROP2; recombinant human TROP2 protein; not shown: His tag
# T1 sequence: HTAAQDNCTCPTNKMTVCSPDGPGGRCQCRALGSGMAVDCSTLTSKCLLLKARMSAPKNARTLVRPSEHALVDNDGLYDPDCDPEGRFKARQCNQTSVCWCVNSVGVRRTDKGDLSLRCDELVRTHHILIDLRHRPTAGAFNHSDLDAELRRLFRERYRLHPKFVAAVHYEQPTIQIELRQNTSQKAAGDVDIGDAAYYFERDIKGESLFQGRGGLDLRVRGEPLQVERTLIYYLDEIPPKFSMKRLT
# experimentalProtocol: ELISA on coated recombinant TROP2 ECD, 1:5 dilutions from 1000 nM, RLU
readoutType: EC50 (read off the curve)

- KD002 (antibody, human IgG1, V domains shown, also called anti-TROP2 sdAb KD002) VH: QVQLQESGGGMVQVGGSLRLSCAASGFPFSSADMSWVRQAPGKGPEWVSYINADGSKTYYPDSVKGRFTISRDNAKNTLYLLMNNLKPEDTALYRCARAKLTDTHYVEDYWGQGTQVTVSS: ~0.2 nM
- KD004 (antibody, human IgG1, V domains shown, also called anti-TROP2 sdAb KD004) VH: QVQLQESGGGLVQPGRSLRLSCAASGFTFSGSDMSWVRQAPGKGPEWVSYITGSGTTYYPDSVKGRFTTSRDNAKNMLYLQMNSLKPDDTALYRCAKARLTDSHYVEDAWGQGTQVTVSS: ~0.2 nM
- KD005 (antibody, human IgG1, V domains shown, also called anti-TROP2 sdAb KD005) VH: QVQLQESGGGLVEAGGSLRLSCAASGFTFSGSDMSWVRQAPGKGPEWVSYITSGGTTYYPDSVKGRFTISRDNAKNTLYLQMNSLKPDDTALYRCAKSRLTDSHYVEDAWGQGTQVTVSS: ~0.2 nM
- KD001 (antibody, human IgG1, V domains shown, also called anti-TROP2 sdAb KD001) VH: QVQLQESGGGMVHPGGSLRLSCAASGFTFSGSDMSWVRQAPGKGPEWVSYITSGGTTYYPDSVKGRFTISRDNAKNTLYLQMNSLTPDDTALYRCAKARLTDSHYVEDAWGQGTQVTVSS: ~0.2 nM
- KD003 (antibody, human IgG1, V domains shown, also called anti-TROP2 sdAb KD003) VH: QVQLQESGGGMVQPGGSLRLSCAASGFTFSNYDMSWVRQAPGKGPEWVSYINAGGSNTDYPDSVKGRFTISRDNAKNMLYLLMNNLKPEDTALYRCARAKLTDTHYVEDYWGQGTQVTVSS: ~0.2 nM
